Taken from paper PMC4336329.

Form field: hERG current change (%, negative = inhibition) at 1uM (one value per entry).
Tested Target: human ether-à-go-go-related gene (hERG) potassium channel (human)
Sequence (Q12809 whole entry, looked up): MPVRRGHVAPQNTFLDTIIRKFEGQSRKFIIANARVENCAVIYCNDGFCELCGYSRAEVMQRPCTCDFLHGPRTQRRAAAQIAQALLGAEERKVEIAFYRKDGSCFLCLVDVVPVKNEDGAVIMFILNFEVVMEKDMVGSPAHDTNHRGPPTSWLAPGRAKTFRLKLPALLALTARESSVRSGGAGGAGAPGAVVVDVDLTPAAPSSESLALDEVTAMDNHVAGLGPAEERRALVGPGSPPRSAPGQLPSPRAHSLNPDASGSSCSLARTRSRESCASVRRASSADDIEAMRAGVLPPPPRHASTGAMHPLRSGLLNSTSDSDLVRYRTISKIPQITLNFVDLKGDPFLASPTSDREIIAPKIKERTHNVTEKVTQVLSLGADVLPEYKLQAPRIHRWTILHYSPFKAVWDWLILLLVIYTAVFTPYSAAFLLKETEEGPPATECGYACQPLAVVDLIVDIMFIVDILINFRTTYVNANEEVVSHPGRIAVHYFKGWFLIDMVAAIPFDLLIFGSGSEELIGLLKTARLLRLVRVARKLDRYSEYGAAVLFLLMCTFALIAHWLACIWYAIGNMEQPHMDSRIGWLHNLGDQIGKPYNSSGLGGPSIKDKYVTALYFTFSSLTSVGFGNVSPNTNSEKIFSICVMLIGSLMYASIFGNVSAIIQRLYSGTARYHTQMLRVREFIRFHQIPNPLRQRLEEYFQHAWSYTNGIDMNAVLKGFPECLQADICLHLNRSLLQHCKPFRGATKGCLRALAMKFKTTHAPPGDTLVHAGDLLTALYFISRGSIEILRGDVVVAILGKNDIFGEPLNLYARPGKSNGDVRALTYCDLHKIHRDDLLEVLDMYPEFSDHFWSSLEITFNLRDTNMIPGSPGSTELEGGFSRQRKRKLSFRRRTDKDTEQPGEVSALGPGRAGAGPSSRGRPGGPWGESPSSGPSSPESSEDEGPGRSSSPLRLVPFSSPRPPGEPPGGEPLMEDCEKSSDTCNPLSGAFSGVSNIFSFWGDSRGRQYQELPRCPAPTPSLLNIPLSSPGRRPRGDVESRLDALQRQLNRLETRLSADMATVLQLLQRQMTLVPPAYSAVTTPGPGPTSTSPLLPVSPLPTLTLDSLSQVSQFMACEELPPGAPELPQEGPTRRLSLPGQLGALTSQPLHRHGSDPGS
Experiment Notes: primary screen, population patch clamp on CHO cells stably expressing hERG; higher = less effect of the substance
The campaign covered roughly 310,000 compounds. About 2,200 (0.71%) showed an effect of 50% or more. The effect is printed as a negative number. Shown is part of a subset that was picked to be rich in strong results.
Your answer is read as %, so omit the unit and give the number.

Incoming: Using the record for O=C(NCC(c1cccs1)N1CCOCC1)c1cc(S(=O)(=O)N2CCOCC2)c(Cl)cc1Cl (centres unmarked) , report its hERG current change (%, negative = inhibition) at 1uM.
Outgoing: 6.08

Incoming: Using the record for COc1ccc(OCC(=O)N2CCC(n3nccc3NC(=O)C3CC3)CC2)cc1 , report its hERG current change (%, negative = inhibition) at 1uM.
Outgoing: -1.98

Incoming: Using the record for Cc1ccc(C(=O)NC2CCN(C(=O)Nc3ccc(F)cc3)CC2)cc1 , report its hERG current change (%, negative = inhibition) at 1uM.
Outgoing: 8.68

Incoming: Using the record for CCOc1cc(C2c3c(n[nH]c3C)C(=O)N2c2ccc(Br)cc2)ccc1O (centres unmarked) , report its hERG current change (%, negative = inhibition) at 1uM.
Outgoing: 10.8

Incoming: Using the record for COc1ccccc1/C=C/CN1CCC(n2nccc2NC(=O)C2CC2)CC1 , report its hERG current change (%, negative = inhibition) at 1uM.
Outgoing: -37.8

Incoming: Using the record for Cc1ccc(-c2nn3c(C)nnc3s2)cc1NC(=O)COc1ccc(Cl)cc1 , report its hERG current change (%, negative = inhibition) at 1uM.
Outgoing: -74.3

Incoming: Using the record for O=C(O)C1CCC(=O)N1C1c2ccccc2Oc2ccccc21 (centres unmarked) , report its hERG current change (%, negative = inhibition) at 1uM.
Outgoing: 7.76

Incoming: Using the record for Cc1cc(C)c(CN2CCC(n3nccc3NC(=O)C3CCCC3)CC2)cc1C , report its hERG current change (%, negative = inhibition) at 1uM.
Outgoing: -26.4

Incoming: Using the record for Cc1ccccc1SC1CCN(Cc2nc(C3CC3)no2)CC1 , report its hERG current change (%, negative = inhibition) at 1uM.
Outgoing: -1.23

Incoming: Using the record for CC(C)(CO)CN1CCC(n2nccc2NC(=O)C2CCCC2)CC1 , report its hERG current change (%, negative = inhibition) at 1uM.
Outgoing: 10.2

Incoming: Using the record for CCCCNc1ccccc1C(=O)OCC(=O)Nc1ccc(S(N)(=O)=O)cc1 , report its hERG current change (%, negative = inhibition) at 1uM.
Outgoing: 0.586
